- testProtocol: Selectivity index, ratio of CC50 for human HepG2(2.2.15) cells to IC50 for HBV by viral DNA replication detection assay
- Format: functional
quantityKind: Ratio CC50/IC50

Solved entries:
C[C@H](Cn1cnc2c(N)ncnc21)OCP(=O)(O)O [TENOFOVIR ANHYDROUS]    >1973.4
CC1(C)[C@@H](O)CC[C@]2(C)[C@H]3C(=O)C=C4[C@@H]5C[C@@](C)(C(=O)OCc6cccc7cccnc67)CC[C@]5(C)CC[C@@]4(C)[C@]3(C)CC[C@@H]12    >111

Consider the record given below.
Ask: Any idea what Ratio CC50/IC50 was measured for `CC1(C)[C@@H](O)CC[C@]2(C)[C@H]3C(=O)C=C4[C@@H]5C[C@@](C)(C(=O)OCc6ccc(OC(F)(F)F)cc6)CC[C@]5(C)CC[C@@]4(C)[C@]3(C)CC[C@@H]12` ?
Reply: >7.1

Each recorded value in this set is attributed to ChEMBL document CHEMBL2021793.
